# Tested on: MDA-MB-231 breast
# METHOD_SUMMARY: NCI-60 one-dose screen, 48 h
# CONDITION_DESCRIPTION: 10 µM unless noted
About 83,000 compounds went through this panel and 20% of them were active in at least one assay; those are over-represented in the sample as a whole. The source made the active and inactive calls. Rule for the calls: active = growth percent below 10; inactive = the rest.
Outcome codes: 1.0 for active, 0.0 for inactive

COMPOUND	ANSWER_LABEL
COc1ccc(\C=N/N=C(N)/C(N)=N\N=C/c2ccc(OC)cc2)cc1	0.0
Cc1c[n+](Cc2ccc3ccccc3c2)cn1Cc1ccc2ccccc2c1	1.0
Ic1ccc(OCCCCn2ccnc2)cc1	0.0
Cn1cc(C(=O)c2nc(-c3c[nH]c4ccccc34)no2)c2cc(F)ccc21	0.0
Cc1cc(C)c2c(c1)N(C)c1ncnc(-n3cnc4cc(C)ccc43)c1CC2C (stereo not given)	0.0
COCCn1cc(-c2nc(-c3cc4cccnc4[nH]3)cs2)c2cc(OC)ccc21	1.0
O=S(=O)(NCCNc1nccc(-c2c(-c3ccc(F)c(O)c3)nc3occn23)n1)c1ccc(Cl)cc1	0.0
Nc1nc(N)c(-c2ccc(Cl)c(Cl)c2)c(CBr)n1	0.0
CC1=NC2=Nn3c(c4cnn(-c5ccccc5)c4n/c3=N\N)NN2C(c2ccccc2)=C1	0.0
CCOC(=O)c1cc2c(n1C)-c1nc(NC(C)=O)sc1CCC2	0.0
COc1cc(C2CC(c3ccc(Nc4nc(Nc5ccc(Cl)cc5)nc(Nc5ccc(Cl)cc5)n4)cc3)=NN2C(C)=O)cc(OC)c1OC (stereo not given)	0.0
COc1ccc(/C=C/C(=O)c2cc3c(N)c(C(=O)Nc4cccc5ccccc45)sc3nc2C)cc1	0.0
C#CCOC(=O)/C=C/c1cn(-c2ccccc2)nc1-c1ccc(OC)cc1	0.0
N=C(N)c1ccc(-c2ccc(-c3ccccc3)o2)cc1	1.0
CCOC(=O)NC(C)C	0.0
NC(=O)c1cccc(-n2ccc3cc(NC(=O)c4ccc(N5CCOCC5)c(C(F)(F)F)c4)ccc32)n1	0.0
COc1cc2nc3cc([N+](=O)[O-])ccc3c(NCCNCC(C)O)c2cc1OC (stereo not given)	1.0
COc1ccc(/C=N\Nc2nc(SCCC(C)C)nc(-c3ccc(OC)cc3)c2C#N)cc1	0.0
CCN1C(=S)N(c2ccccc2)C2C1NN=c1s/c(=C3\C(=O)N(C(C)C)c4ccccc43)c(=O)n12 (stereo not given)	0.0
Cc1ccccc1/C=C/C(=O)c1cccc(OCCCCOc2cccc(C(=O)/C=C/c3ccccc3C)c2)c1	0.0

* * *

# Test system: HCT-116 colon
# METHOD_SUMMARY: NCI-60 one-dose screen, 48 h
# CONDITION_DESCRIPTION: 10 µM unless noted
About 83,000 compounds went through this panel and 20% of them were active in at least one assay; those are over-represented in the sample as a whole. The source made the active and inactive calls. The calls were made as follows: active = growth percent below 10; inactive = the rest.
Labels: active, inactive

COMPOUND	SYSTEM_TESTED	ANSWER_LABEL
NC(=O)c1c(NC(=O)c2ccc3ccccc3c2)sc2c1CCC(=O)C2	HCT-116 colon	active
CC(C)(Sc1cc(C(C)(C)C)c(O)c(C(C)(C)C)c1)Sc1cc(C(C)(C)C)c(OC(=O)CCCC(=O)O)c(C(C)(C)C)c1	HCT-116 colon	inactive
CN(c1cc2ncc(=O)[nH]c2cc1NC(N)=NCc1ccc(Cl)cc1)C1CCCCC1	HCT-116 colon	inactive
C#COc1cccc(Nc2c(C#N)cnc3ncc(NC(=O)CCl)cc23)c1	HCT-116 colon	active
Cc1ccc2c(c1)=C/C(=C\c1cc(-c3ccccc3)oc1O)C(=O)N=2	HCT-116 colon	inactive
CNC(=O)c1[nH]cc(-c2ccc(OC)cc2)c1-c1cc(OC)c2c(c1OC)OCO2	HCT-116 colon	inactive
Cc1nc2sc(C(=O)Nc3cccc4ccccc34)c(N)c2cc1C(O)c1ccccc1 (stereo not given)	HCT-116 colon	active
Oc1c(Br)cc(Br)c2ccc(Cn3cc(-c4ccc(C(F)(F)F)cc4)nn3)nc12	HCT-116 colon	active
CN(C)c1ccc(C(=O)OCCCCCCl)cc1	HCT-116 colon	inactive
CN(C)CC(C)(C)C(=O)/C=C/c1ccccc1	HCT-116 colon	active
Cc1ccccc1/C=C/C(=O)c1cccc(OCCCCOc2cccc(C(=O)/C=C/c3ccccc3C)c2)c1	HCT-116 colon	inactive
Nc1cc(C(=O)NC[C@H]2CN(c3ccc(N4CCC(C(=O)O)CC4)cc3)C(=O)O2)ccc1Cl	HCT-116 colon	inactive
O=C1/C(=C/c2ccc([N+](=O)[O-])cc2)COc2ccc(O)cc21	HCT-116 colon	active
CCSC(SCC)c1ccc(Cl)cc1	HCT-116 colon	inactive
COc1cc(/C=C2/C=C(c3ccccc3)N(CCc3ccc(S(N)(=O)=O)cc3)C2=O)cc(OC)c1OC	HCT-116 colon	inactive
COc1cc(-c2csc(NC(=O)c3ccc(N4CCOCC4)c(C(F)(F)F)c3)n2)cc(OC)c1OC	HCT-116 colon	inactive
O=C(/C=C/c1cccc(Cl)c1)c1cccc(OCCCOc2cccc(C(=O)/C=C/c3cccc(Cl)c3)c2)c1	HCT-116 colon	inactive
Cc1csc(Nc2nc(-c3ccccn3)nc(C(Cl)(Cl)Cl)n2)n1	HCT-116 colon	inactive
O=C1/C=C/[C@@H](O)[C@@H]2C[C@@H](O)C[C@H]2/C=C/CCC[C@H](CCc2ccccc2)O1	HCT-116 colon	active
O=C(Nc1ccc(Oc2cccc(Cl)c2)c(Cl)c1)c1cnccn1	HCT-116 colon	inactive

* * *

# Tested on: MDA-MB-435 melanoma
# METHOD_SUMMARY: NCI-60 one-dose screen, 48 h (100 = growth as untreated, 0 = no growth, -100 = all killed)
# CONDITION_DESCRIPTION: 10 µM unless noted
Compounds without any hit were thinned out: in the full panel of roughly 83,000, 20% have a hit.
Quick reference for growth among some molecules

MOLECULE	growth, %
c1cnc2c(-c3nc4ccc5[nH]ncc5c4c4c3CCCC4)c[nH]c2c1	51.9
CC(C)c1ccc(-n2c(=S)[nH]c3sc4cc(O)ccc4c3c2=O)cc1	100
CCOC(=O)C1=C(c2ccccc2)N=C2SC=C(c3ccc(Cl)cc3)N2C1c1ccc(Br)cc1 (stereo unspecified)	94.3
O=C1/C(=C/c2cn(-c3ccccc3)nc2-c2ccccc2)SC(=S)N1C1CCCCC1	98.8
CN(C)CC1CCC(CN(C)C)C1=O (stereo unspecified)	121
CCN1C(=S)N(c2ccccc2)C2NC(=S)N(/N=C/C=C/c3ccccc3OC)C21 (stereo unspecified)	-31
O=C(Cn1cc(CSc2nc3ccccc3o2)nn1)Nc1ccc(F)cc1F	114
C=C(C)[C@@H]1CC[C@]2(C(=O)N3CCOCC3)CC[C@]3(C)[C@H](CC[C@@H]4[C@@]5(C)C/C(=C/c6ccncc6)C(=O)C(C)(C)[C@@H]5CC[C@]43C)[C@@H]12	62.3
Ic1ccc(OCCCCn2ccnc2)cc1	73
CC(=O)/C(=C\c1c(-c2ccccc2)[nH]c2ccccc12)S(C)(=O)=O	-42.7
Cc1ccc(Nc2cc(N)nc(N)n2)cc1Cl	98.9

* * *

# Test system: A549/ATCC NSCLC
# METHOD_SUMMARY: NCI-60 one-dose screen, 48 h (100 = growth as untreated, 0 = no growth, -100 = all killed)
# CONDITION_DESCRIPTION: 10 µM unless noted
Compounds without any hit were thinned out: in the full panel of roughly 83,000, 20% have a hit.
So basically, if growth comes in under 60% it's 1, and if it's 60% or more it's -1.

COMPOUND	SYSTEM_TESTED	ANSWER_LABEL
CCCn1cc2c(=O)nc3sc(Cc4ccccc4)c(C)n3c2n1	A549/ATCC NSCLC	-1
Cn1cc(-c2nonc2-c2cn(C)c3ccccc23)c2ccccc21	A549/ATCC NSCLC	1
N#Cc1c(-c2ccc(Cl)cc2)nc(NN2C(=O)c3ccccc3C2=O)nc1N1CCOCC1	A549/ATCC NSCLC	-1
CCCCC1=C(P(=O)(O)O)N[C@H](C(=O)O)CS1	A549/ATCC NSCLC	-1
CCOC(=O)C1=C(N)Oc2c(sc3c(F)cccc23)C1c1ccc(O)cc1 (stereo not given)	A549/ATCC NSCLC	1
CCc1ccccc1-n1c(-c2ccc(OC)cc2)cc(-c2ccc(OC)cc2)c(C#N)c1=O	A549/ATCC NSCLC	-1
CCc1ncnc2c1ccn2C(C)c1ccc(OC)c(F)c1 (stereo not given)	A549/ATCC NSCLC	1
CC(C)c1ccc(-n2c(=S)[nH]c3sc4cc(O)ccc4c3c2=O)cc1	A549/ATCC NSCLC	-1
O=c1c2cnn(-c3ccccc3)c2n2c(CN3CCOCC3)nnc2n1-c1ccccc1	A549/ATCC NSCLC	-1
CN(C)CCNC(=O)c1cc2c3cc(Cl)ccc3[nH]c2c2ncccc12	A549/ATCC NSCLC	1
O=C1/C(=C/c2cn(-c3ccccc3)nc2-c2ccccc2)SC(=S)N1C1CCCCC1	A549/ATCC NSCLC	-1
CCOC(=O)c1cc(C)n(-c2ccc(C(=O)O)cc2)c1C	A549/ATCC NSCLC	-1
O=C(/C=C/c1cccc(Cl)c1)c1cccc(OCCCOc2cccc(C(=O)/C=C/c3cccc(Cl)c3)c2)c1	A549/ATCC NSCLC	-1
O=C1Nc2ccccc2/C1=C/c1cccn1CCCCn1c2ccccc2c(=O)c2ccccc21	A549/ATCC NSCLC	-1
Oc1c(I)cc(I)cc1CNCCN(Cc1ccccn1)Cc1ccccn1	A549/ATCC NSCLC	1
Nc1ncc(-c2ccc3ncnc(Nc4cccc(Cl)c4)c3c2)cn1	A549/ATCC NSCLC	1
COC(CC(F)F)c1cn(S(=O)(=O)c2ccc(C)cc2)c2ccccc12 (stereo not given)	A549/ATCC NSCLC	1
CCOC(=O)c1c(NC(=O)c2ccc(Cl)cc2)sc2c(CN(C)C)c(O)ccc12	A549/ATCC NSCLC	-1
CCCC/C(CC)=N\NS(=O)(=O)c1ccc([N+](=O)[O-])cc1	A549/ATCC NSCLC	-1
COc1ccc(/C=C/C(=O)c2ccc(Nc3ccnc4cc(Cl)ccc34)cc2)cc1	A549/ATCC NSCLC	-1
CCn1c(SCC(=O)N/N=C(\C)c2ccc(Cl)cc2)nc2c1c(=O)n(C)c(=O)n2C	A549/ATCC NSCLC	-1
Cc1cccc(/C=C/c2c(C(=O)/C=C/c3ccccc3)c(C)nc3ccccc23)c1	A549/ATCC NSCLC	1
C1CCC([PH+](C2CCCCC2)C2CCCCC2[PH+](C2CCCCC2)C2CCCCC2)CC1.[Au].[CH-]1CCCCC1C1CCCC[N-]1 (stereo not given)	A549/ATCC NSCLC	1
CCOc1ccc(NC(=O)CSc2oc(-c3ccccc3)nc2S(=O)(=O)c2ccc(C)cc2)cc1	A549/ATCC NSCLC	1
Cn1cc(C(=O)c2nc(-c3c[nH]c4ccccc34)no2)c2cc(F)ccc21	A549/ATCC NSCLC	1
CCSc1nc2scc(C)c2c(=O)[nH]1	A549/ATCC NSCLC	-1
COc1ccc(Nc2nnc(-c3ccc(OC)c(OC)c3)o2)cc1	A549/ATCC NSCLC	-1
C=CCc1c(O)c(C(=O)/C=C/c2ccccc2)c(OC)c2ccoc12	A549/ATCC NSCLC	1
CCN1C(=S)N(c2ccccc2)C2NC(=S)N(/N=C/C=C/c3ccccc3OC)C21 (stereo not given)	A549/ATCC NSCLC	1
COC1/C=C/OC2(C)Oc3c(C)c(O)c4c(O)c(c(/C=N/Nc5ccc([N+](=O)[O-])cc5[N+](=O)[O-])c(O)c4c3C2=O)NC(=O)C(C)=C/C=C/C(C)C(O)C(C)C(O)C(C)C(OC(C)=O)C1C (stereo not given)	A549/ATCC NSCLC	-1
COC(=O)Nc1nc2ccc(S(=O)c3ccccc3)cc2[nH]1 (stereo not given)	A549/ATCC NSCLC	1
O=C(CSc1nc2sc3c(c2c(=O)n1-c1ccccc1)CCCCC3)N/N=C/c1cccc([N+](=O)[O-])c1	A549/ATCC NSCLC	1
Nc1nc2ccccc2c2c1S(=O)(=O)c1ccc(Cl)cc1C2=O	A549/ATCC NSCLC	1
COc1ccccc1CNc1c2ccccc2nc2ccccc12	A549/ATCC NSCLC	1
C[C@@H](CO)[C@@H]1CCC=C2CC[C@]3(C)[C@H](CC[C@@H]4[C@@]5(C)CCCNC(C)(C)[C@@H]5CC[C@]43C)[C@H]21	A549/ATCC NSCLC	1
COc1cc2cc(NCc3cccc(Cl)c3)nc(C)c2cc1OC	A549/ATCC NSCLC	1
OCCn1cc(-c2nc(-c3c[nH]c4ncccc34)cs2)c2cc(F)ccc21	A549/ATCC NSCLC	-1
C/C(Cc1ccc(Cl)cc1)=C(\c1ccc(O)cc1)c1ccc(Cl)cc1	A549/ATCC NSCLC	-1
COCCn1cc(-c2csc(-c3cn(C)c4ccc(Br)cc34)n2)c2cccnc21	A549/ATCC NSCLC	1
COc1ccccc1NC(=O)N=Nc1c(O)[nH]c2ccccc12	A549/ATCC NSCLC	-1
